# Tested on: MCF7 breast
# protocol: NCI-60 one-dose screen, 48 h (100 = growth as untreated, 0 = no growth, -100 = all killed)
# condition.parameters: 10 µM unless noted
This is part of a sample that, as a whole, favours compounds with a hit. Of some 83,000 tested, about 20% had one in any assay.
measurement.label: growth (%)
Respond numerically; units are % and should not be typed.

So, CCCCCCCCCCn1cc[n+](C)c1 ? Its growth was 3.94

So, Cc1cc(Nc2nc(C(=O)Nc3ccccc3)nc3ccccc23)n[nH]1 ? Its growth was 72.1

So, O=C(Nc1ccc(I)cc1)c1cc([N+](=O)[O-])ccc1O ? Its growth was 18.9

So, Cc1cc2c(C(C)C)c(O)c(O)c(C=NCCCCC(=O)O)c2c(O)c1-c1c(C)cc2c(C(C)C)c(O)c(O)c(C=NCCCCC(=O)O)c2c1O ? Its growth was 32.8

So, CCN1C(=S)N(CC)C2Nn3c(s/c(=C4\C(=O)N(C)c5ccccc54)c3=O)=NC21 (stereo not given) ? Its growth was 29.8
